studySystem: JAK2 (Homo sapiens (Human))
Sequence (O60674 849-1124): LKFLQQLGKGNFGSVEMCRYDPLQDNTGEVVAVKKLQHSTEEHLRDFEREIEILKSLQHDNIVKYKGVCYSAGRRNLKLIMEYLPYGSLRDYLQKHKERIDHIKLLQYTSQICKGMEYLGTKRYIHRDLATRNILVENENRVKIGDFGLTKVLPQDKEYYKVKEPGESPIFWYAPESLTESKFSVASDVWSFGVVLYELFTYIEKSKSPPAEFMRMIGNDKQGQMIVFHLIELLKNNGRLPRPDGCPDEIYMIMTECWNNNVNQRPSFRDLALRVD
experimentalDetails: JAK kinase assay (HTRF), JAK2
Assay type: biochemical
assayContext: catalytic domain, ATP at Km (4 μM)
pEC50: −log10 of the molar value.
endpointName: pEC50

compound	experimentalValue
NS(=O)(=O)c1cccc(CNC(=O)C2CCN(c3ncnc4[nH]ccc34)CC23CC3)c1 (centres unmarked)	7.73
N#CCC1(COC(=O)[C@H]2CCN(c3ncnc4[nH]ccc34)CC23CC3)CC1	8.42
Cc1cc([C@H](O)[C@H](C)NC(=O)[C@H]2CCN(c3ncnc4[nH]ccc34)CC23CC3)ccc1F	8.08
N#Cc1ccc([C@@H](CO)NC(=O)C2CCN(c3ncnc4[nH]ccc34)CC23CC3)cc1 (some centres unmarked)	7.27
N#Cc1ccc(CNC(=O)[C@H]2CCN(c3ncnc4[nH]ccc34)CC23CC3)cc1F	8.44
COc1cccc(CNC(=O)C2CCN(c3ncnc4[nH]ccc34)CC23CC3)c1 (centres unmarked)	7.43
Cc1cc(F)ccc1[C@H](CO)NC(=O)[C@H]1CCN(c2ncnc3[nH]ccc23)CC12CC2	7.79
C[C@H](NC(=O)C1CCN(c2ncnc3[nH]ccc23)CC12CC2)c1cccc(C#N)c1 (some centres unmarked)	7.95
COc1cc(F)ccc1[C@@H](C)NC(=O)C1CCN(c2ncnc3[nH]ccc23)CC12CC2 (some centres unmarked)	7.52
C[C@](CO)(NC(=O)[C@H]1CCN(c2ncnc3[nH]ccc23)CC12CC2)c1ccc(C#N)cc1	8.49
O=C(OCC1(CO)CC(F)(F)C1)[C@H]1CCN(c2ncnc3[nH]ccc23)CC12CC2	9.10
O=C(N[C@H](CO)C(=O)OCC1(CO)CC1)[C@H]1CCN(c2ncnc3[nH]ccc23)CC12CC2	7.61
O=C(NC[C@H](O)c1ccc(F)cn1)[C@H]1CCN(c2ncnc3[nH]ccc23)CC12CC2	8.06
Cc1cc([C@@H](O)CNC(=O)[C@H]2CCN(c3ncnc4[nH]ccc34)CC23CC3)ncc1F (single isomer, unassigned)	7.58
N#Cc1ccc([C@H](CO)NC(=O)[C@H]2CCN(c3ncnc4[nH]ccc34)CC23CC3)nc1	7.86
N#CC1CC(CNC(=O)C2CCN(c3ncnc4[nH]ccc34)CC23CC3)C1 (centres unmarked)	7.92
C[C@@H](NC(=O)C1CCN(c2ncnc3[nH]ccc23)CC12CC2)c1ccc(F)c(F)c1 (some centres unmarked)	7.71
O=C(NC[C@H](O)C1CCC1)[C@H]1CCN(c2ncnc3[nH]ccc23)CC12CC2	8.47
N#C[C@@H]1C[C@H]1CNC(=O)C1CCN(c2ncnc3[nH]ccc23)CC12CC2 (some centres unmarked)	7.58
O=C(N[C@@H](CO)[C@H](O)c1ccc(F)cc1)[C@H]1CCN(c2ncnc3[nH]ccc23)CC12CC2	8.15
NS(=O)(=O)c1ccc(CNC(=O)C2CCN(c3ncnc4[nH]ccc34)CC23CC3)cc1 (centres unmarked)	8.30
O=C(N[C@@H](CO)c1ccc(F)cc1)[C@H]1CCN(c2ncnc3[nH]ccc23)CC12CC2	8.52
COc1cc(C#N)ccc1[C@H](C)NC(=O)[C@H]1CCN(c2ncnc3[nH]ccc23)CC12CC2	7.44
O=C(NC[C@@H](O)c1ccccc1)C1CCN(c2ncnc3[nH]ccc23)CC12CC2 (some centres unmarked)	7.80
C[C@H](NC(=O)[C@H]1CCN(c2ncnc3[nH]ccc23)CC12CC2)c1ccc(C#N)cc1	8.49
N#Cc1cccc([C@H](O)CNC(=O)[C@H]2CCN(c3ncnc4[nH]ccc34)CC23CC3)c1	7.60

Hello, the source for this data is patent US10799507B2, in case you need it.
